Source: PubChem BioAssay

Test: MRP1 drug-resistance reversers in H69AR cells – cell-based, doxorubicin co-treatment, pilot screen (AID 601)
Conditions: H69AR cells + 2 uM doxorubicin, CellTiter-Glo, 72 h; at 10 µM; active compounds read high
The source made the active and inactive calls.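 Rule for the calls: active = viability loss from added drug above about 55%, and viability with drug at most 40%, in both replicates (limit read from the data, passing the limit was not always enough); inconclusive = both conditions met in only one replicate; inactive = neither replicate meets both conditions.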
VALUE_KIND: differential viability (reversal)

compound="Nc1nc2n(n1)C(c1cccc(Br)c1)CC(c1ccc(F)cc1)N2 (stereo unspecified)" result="-6.81% (inactive)"
compound=CCOC(=O)C1CCN(Cc2ccc(OC)c(C)c2OC)CC1 result="3.22% (inactive)"
compound="CC1Cc2nc(SCC(=O)N3CCCc4ccccc43)n(C)c(=O)c2S1 (stereo unspecified)" result="20.9% (inactive)"
compound=Cc1cc(C)cc(N(CC(=O)Nc2cccc(C)n2)S(=O)(=O)c2c(C)noc2C)c1 result="11.8% (inactive)"
compound=CCc1ccc(C(=O)NC2CCCCC2)s1 result="17.8% (inactive)"
compound="CCC(C)(NC(=O)CNC(C)=O)C(=O)NC1CCCCC1 (stereo unspecified)" result="-3.05% (inactive)"

---

Assay: S. cerevisiae growth inhibition in restrictive medium, OD615, pilot screen, restrictive growth control, yeast lifespan reduction project (AID 706);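 note: modified DeaD lifespan yeast strain shifted to restrictive glucose medium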
Conditions: OD615, 48 h, at 10 µM, active compounds read high
Listing: growth inhibition of selected compounds
VALUE_KIND: growth inhibition (%)

compound=CCOc1ccc(N(CC(=O)Nc2ccccc2)S(C)(=O)=O)cc1 value_kind="growth inhibition" numeric_value=-1.96
compound=CCOCCOc1nc2c(c(=O)n(C)c(=O)n2C)n1Cc1ccc(C)cc1 value_kind="growth inhibition" numeric_value=-4.73
compound=Cc1cccc(OCC(=O)Nc2ccc(N3CCCC3)cc2)c1C value_kind="growth inhibition" numeric_value=14.8
compound="CCOc1ccc(C2CC(c3ccc(CC)cc3)n3nc(N)nc3N2)cc1 (stereo unspecified)" value_kind="growth inhibition" numeric_value=21
compound=COCCn1c(=N)c(C(=O)NCCc2ccccc2)cc2c(=O)n3cccc(C)c3nc21 value_kind="growth inhibition" numeric_value=-10.6
compound="Cc1cccc(-n2nc3c(c2NC(=O)CCC2CCCCC2)CS(=O)C3)c1C (stereo unspecified)" value_kind="growth inhibition" numeric_value=1.94
compound=Cc1noc(C)c1S(=O)(=O)N(CC(=O)N1CCc2ccccc21)c1ccc(C(C)C)cc1 value_kind="growth inhibition" numeric_value=-7.38
compound=CC(=O)NCc1nc2ccccc2n1C(C)C value_kind="growth inhibition" numeric_value=-29.9
compound=Cc1ccc(-n2nc(C)c3cc(C(=O)O)sc32)cc1 value_kind="growth inhibition" numeric_value=21.7
compound=OC1(c2cccc(C(F)(F)F)c2)CCN(c2ccc(-c3ccccc3)nn2)CC1 value_kind="growth inhibition" numeric_value=-9.3
compound=CCOC(=O)CN1C(=O)C(=O)c2cccc(C)c21 value_kind="growth inhibition" numeric_value=-4.38

---

Experiment: MRP1 drug-resistance reversers in H69AR cells – cell-based, doxorubicin co-treatment, pilot screen (AID 601)
Conditions: H69AR cells + 2 uM doxorubicin, CellTiter-Glo, 72 h; at 10 µM; active compounds read high
Let's look at some compounds and their measured differential viability (reversal).
VALUE_KIND: differential viability (reversal) (%)

compound=CNC(=O)c1ccsc1NC(=O)CN1C(=O)CCC1=O value_kind="differential viability (reversal)" uom=% numeric_value=-22.5
compound=Clc1cccc(N2CCN(Cc3nc(-c4ccccc4)no3)CC2)c1 value_kind="differential viability (reversal)" uom=% numeric_value=-4.04
compound="CSc1nc2c(c(=O)n1C)SC(C)C2 (stereo unspecified)" value_kind="differential viability (reversal)" uom=% numeric_value=-4.56
compound=CCCCC(=O)NCCc1cc2c(C)ccc(C)c2[nH]c1=O value_kind="differential viability (reversal)" uom=% numeric_value=1.76
compound=COCCN(CCOC)c1ncnc2c1cnn2-c1ccccc1 value_kind="differential viability (reversal)" uom=% numeric_value=-6.92
compound="COCCOC(=O)C1=C(C)N=c2s/c(=C\\c3cccs3)c(=O)n2C1c1cccs1 (stereo unspecified)" value_kind="differential viability (reversal)" uom=% numeric_value=-4.05
compound=CCCCCn1c(=O)[nH]c2cc(C(=O)NCCCN3CCCCC3)ccc2c1=O value_kind="differential viability (reversal)" uom=% numeric_value=6.66
compound="COc1cccc(C2CC(=O)Nc3cc4c(cc32)OCCO4)c1OC(C)C (stereo unspecified)" value_kind="differential viability (reversal)" uom=% numeric_value=-29.5
compound=CCOCCn1c(CN2CCN(CC)CC2)nc2c1c(=O)n(C)c(=O)n2C value_kind="differential viability (reversal)" uom=% numeric_value=4.7
compound=CCCn1c(OC)nc2c1c(=O)n(C)c(=O)n2C value_kind="differential viability (reversal)" uom=% numeric_value=0.235
compound=Cc1nc2ccc(C(=O)c3ccccc3)cc2[nH]1 value_kind="differential viability (reversal)" uom=% numeric_value=2.49
compound=C=CCn1c(SCc2cccc(C#N)c2)nnc1-c1ccccc1O value_kind="differential viability (reversal)" uom=% numeric_value=0.595
compound=O=C(Cn1c(=O)sc2ccccc21)NCCOc1ccccc1F value_kind="differential viability (reversal)" uom=% numeric_value=13.6
compound="CC1CCc2nn(CC(=O)NCCCN3CCOCC3)cc2C1 (stereo unspecified)" value_kind="differential viability (reversal)" uom=% numeric_value=2.46
compound="Cc1ccc(-c2noc(CN3C(C)CCCC3C)n2)cc1 (stereo unspecified)" value_kind="differential viability (reversal)" uom=% numeric_value=5.67
compound="COC(=O)C1=C(C)Nc2ncnn2C1c1ccc(C)o1 (stereo unspecified)" value_kind="differential viability (reversal)" uom=% numeric_value=7.49
compound=CCCc1cc(C(=O)Nc2sc3c(c2C#N)CCC3)no1 value_kind="differential viability (reversal)" uom=% numeric_value=-25.9
compound=Cc1ccc(-c2oc3ccccc3c(=O)c2O)cc1 value_kind="differential viability (reversal)" uom=% numeric_value=-6.71
compound="CC1Cn2c(nnc2-c2ccc(F)cc2)S1 (stereo unspecified)" value_kind="differential viability (reversal)" uom=% numeric_value=-1.42
compound=Cn1cccc1Cc1nnc(SCC(=O)NCc2ccc(F)cc2)n1-c1ccc(F)cc1 value_kind="differential viability (reversal)" uom=% numeric_value=-4
compound=O=C(CCS(=O)(=O)c1cccc2nsnc12)NCc1ccccc1 value_kind="differential viability (reversal)" uom=% numeric_value=17.4
compound=CC1CCN(Cc2ccc(NC(=O)C3CCN(c4nnc(-n5cccc5)s4)CC3)cc2)CC1 value_kind="differential viability (reversal)" uom=% numeric_value=-1.01
compound=COc1ccc(NC(=O)CN(c2ccc(C(C)C)cc2)S(=O)(=O)c2c(C)noc2C)cc1OC value_kind="differential viability (reversal)" uom=% numeric_value=-6.37
compound="O=C1c2ccccc2C(Nc2ccc(F)c(Cl)c2)N1Cc1ccco1 (stereo unspecified)" value_kind="differential viability (reversal)" uom=% numeric_value=-0.96
compound=CCCN(CCC)C(=O)c1c(C)[nH]c(C(=O)OCC)c1C value_kind="differential viability (reversal)" uom=% numeric_value=-12.4
compound=Cc1ccc(-n2c3c(cc(C(=O)O)c2=O)C(=O)CC(C)(C)C3)cc1 value_kind="differential viability (reversal)" uom=% numeric_value=-3.07
compound=CCOc1ccc(N(CC(=O)NCc2ccco2)S(=O)(=O)c2ccc(OC)c(OC)c2)cc1 value_kind="differential viability (reversal)" uom=% numeric_value=0.495
compound=O=C(Nc1nncs1)c1ccccc1NS(=O)(=O)c1cccs1 value_kind="differential viability (reversal)" uom=% numeric_value=-3.62
compound=CCc1c(C)n([O-])c2c([n+]1=O)CCC2 value_kind="differential viability (reversal)" uom=% numeric_value=5.73
compound=COCCNC(=O)c1cc(-c2cccs2)on1 value_kind="differential viability (reversal)" uom=% numeric_value=23.6
compound="CCC(C)NC(=O)CS(=O)(=O)Cc1nc(-c2cccc(OC)c2)oc1C (stereo unspecified)" value_kind="differential viability (reversal)" uom=% numeric_value=-8.61
compound="O=C(C1CCC(CNc2c(N3CCCCC3)c(=O)c2=O)CC1)N1CCc2ccccc2C1 (stereo unspecified)" value_kind="differential viability (reversal)" uom=% numeric_value=9.49
compound=CCOc1ccc2nc(N3CCC(C(=O)N4CCN(C5CCCCC5)CC4)CC3)sc2c1 value_kind="differential viability (reversal)" uom=% numeric_value=8.46
compound=COc1ccc(NC(=O)CC2CCCCC2)cc1OC value_kind="differential viability (reversal)" uom=% numeric_value=12.8
compound=Cc1cccc(N2CCN(C(=O)Cn3nc(Cc4ccncc4)c4ccccc4c3=O)CC2)c1C value_kind="differential viability (reversal)" uom=% numeric_value=-7.61
compound=Cc1ccc(S(=O)(=O)NCCOC(=O)Nc2sc(=S)n(C)c2C)cc1 value_kind="differential viability (reversal)" uom=% numeric_value=7.26
compound=CC(=O)NCCc1ccc(S(=O)(=O)NCc2ccc3c(c2)OCO3)cc1 value_kind="differential viability (reversal)" uom=% numeric_value=12
compound="Cc1ccc(C)c(NC(=O)C2CCC(C)(C(=O)O)C2(C)C)c1 (stereo unspecified)" value_kind="differential viability (reversal)" uom=% numeric_value=5.67
compound="Cc1c(C(=O)OCc2ccccc2)[nH]c2c1C(=O)CC(c1ccco1)C2 (stereo unspecified)" value_kind="differential viability (reversal)" uom=% numeric_value=-2.23
compound="CCOC(=O)C1CCCN(C(=O)c2ccc(CS(=O)(=O)c3ccc(Br)cc3)o2)C1 (stereo unspecified)" value_kind="differential viability (reversal)" uom=% numeric_value=-1.7
compound=Cc1ccc2cc(CCNC(=O)C(C)C)c(=O)[nH]c2c1C value_kind="differential viability (reversal)" uom=% numeric_value=6.72
compound="c1nc(NCC2CCCO2)c2[nH]cnc2n1 (stereo unspecified)" value_kind="differential viability (reversal)" uom=% numeric_value=7.82
compound="COc1ccc(C2CC(c3ccc(Cl)cc3Cl)n3nc(N)nc3N2)cc1 (stereo unspecified)" value_kind="differential viability (reversal)" uom=% numeric_value=-0.635
compound="CC1CCCCN1S(=O)(=O)c1ccc(NC(=O)c2cccs2)cc1 (stereo unspecified)" value_kind="differential viability (reversal)" uom=% numeric_value=1.84
compound="O=C(O)c1ccccc1S(=O)(=O)NCC(O)COc1ccc(Br)cc1 (stereo unspecified)" value_kind="differential viability (reversal)" uom=% numeric_value=6.29
compound=CCN1CCN(CCCNC(=O)c2cc3sccc3n2CC)CC1 value_kind="differential viability (reversal)" uom=% numeric_value=-1.6
